List of aptazyme ON/OFF ratio values.
B1: Pistol ribozyme (parent)
chain: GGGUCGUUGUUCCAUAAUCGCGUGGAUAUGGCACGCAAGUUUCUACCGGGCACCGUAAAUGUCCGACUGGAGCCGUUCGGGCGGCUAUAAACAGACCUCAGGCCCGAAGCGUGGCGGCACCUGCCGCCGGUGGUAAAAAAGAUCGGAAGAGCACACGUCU

variants of: B1; assay: aptazyme ON/OFF ratio, guanine; higher = stronger switching; co-transcriptional cleavage with and without guanine
Answer field: number only, no words.

Solved cases below.
U7A U8C U10C U11A C12U C13A | 1.21
U7G U8C U10C U11C C12U | 1.16
U7C U8C G9U U11A C13G | 1.07
U7C U8C G9A U10A U11A C13A | 1.18
U7G G9U U10A U11C C12A C13U | 1.46

Output measured aptazyme ON/OFF ratio for this item: U8C G9C U11C C12G
1.26

Item G9C C12G C13A : provide aptazyme ON/OFF ratio
1.28

Look up and state reported aptazyme ON/OFF ratio for U7G U8A G9C U10G U11G C12A C13U
1.03

Identify measured aptazyme ON/OFF ratio corresponding to U7C U8G G9A U10A U11G C12U C13U
1.35

Please report the measured aptazyme ON/OFF ratio for U7A U8C U10G U11C C12G
2.72

Where do these numbers come from? They come from the RNAGym collection of RNA variant scans (doi:10.1021/acssynbio.7b00057).
